Quick reference: IC50 of the listed items.
- targetDesc: Indoleamine 2,3-Dioxygenase (IDO1) in SKOV-3 cells (Homo sapiens)
- Construct: endogenous in cells
- Sequence (P14902 whole entry): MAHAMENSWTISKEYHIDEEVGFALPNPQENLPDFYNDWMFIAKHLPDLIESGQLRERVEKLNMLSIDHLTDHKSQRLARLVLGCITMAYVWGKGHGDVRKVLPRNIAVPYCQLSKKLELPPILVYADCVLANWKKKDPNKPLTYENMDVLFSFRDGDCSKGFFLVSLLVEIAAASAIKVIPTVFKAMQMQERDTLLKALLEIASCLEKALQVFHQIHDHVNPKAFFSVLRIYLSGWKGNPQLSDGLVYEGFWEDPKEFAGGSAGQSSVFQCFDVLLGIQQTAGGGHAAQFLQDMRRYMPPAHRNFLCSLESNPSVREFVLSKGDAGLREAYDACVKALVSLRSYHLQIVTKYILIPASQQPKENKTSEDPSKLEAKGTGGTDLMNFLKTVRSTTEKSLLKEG
- testDescription: SKOV-3 cellular indoleamine 2,3-dioxygenase assay
- measurementConditions: 50 ng/ml Interferon gamma, 100 μM L-Tryptophan, 24 hours, N-Formylkynurenin fluorescence, read-out: cell based activity (IC50)

Solved entries:
| molecule | targetDesc | result |
| --- | --- | --- |
| O=C(Nc1ccc(Cl)cc1)C(=O)N1CC[C@@H](c2ccnc3ccc(F)cc23)[C@H](O)C1 (single isomer, unassigned) [Example 10b] | Indoleamine 2,3-Dioxygenase (IDO1) in SKOV-3 cells (Homo sapiens) | < 100 nM |
| CC1(C)CN(C(=O)C(=O)Nc2ccc(Cl)cc2)CCC1c1ccnc2ccc(F)cc12 (centres unmarked) | Indoleamine 2,3-Dioxygenase (IDO1) in SKOV-3 cells (Homo sapiens) | < 100 nM |
| O=C(Nc1ccc(Cl)cc1)C(=O)N1CCC(c2ccnc3cc(F)ccc23)CC1 | Indoleamine 2,3-Dioxygenase (IDO1) in SKOV-3 cells (Homo sapiens) | < 100 nM |

## Task Entry under review: O=C(Nc1ccc(C(F)(F)F)cn1)C(=O)N1CCC(c2ccnc3ccc(F)cc23)CC1 . Reported IC50?
## Result 100 to 1000 nM

## Task Let us now turn to O=C(Nc1ccc(Cl)cn1)C(=O)N1CCC2(CC1)OCc1ccc(Cl)cc12
## Result > 1000 nM
